# Read-out: Cytochrome P450 7A1 (Homo sapiens)
# measurement notes: LTEA_HepaRG_CYP7A1: Life Technologies and Expression Analysis (LTEA) Assay for Cytochrome P450 7A1 (CYP7A1) using HepaRG (AID 2283496)
# measurement parameters: mRNA level, 48 h; actives raise or lower the signal
Active and inactive are the calls of the source. The calls were made as follows: active = hit-call score of the fitted dose curve at least 0.9, where 1 is the maximum; inactive = score below 0.9.
Outcome codes: y = active, n = inactive

• Oc1ccc2ccc3cccc4ccc1c2c34 = y
• Cc1ccc(N=C=O)cc1N=C=O = y
• CCC(C)c1ccc(O)cc1 (stereo not drawn) = n
• Nc1ccc(Cc2ccc(N)cc2)cc1 = n
• O=Cc1ccco1 = n
• C[N+](C)(C)CC1CO1 (stereo not drawn) = n
• CCCCC(CC)COC(=O)c1ccc(C(=O)OCC(CC)CCCC)c(C(=O)OCC(CC)CCCC)c1 (stereo not drawn) = n
• CN(C)C(=O)Nc1ccc(Cl)cc1 = n
